Where do the numbers come from? From ChEMBL document CHEMBL4177666.

- Test system: Escherichia coli
- protocol summary: Permeability index, ratio of MIC for wild type Escherichia coli MG1655 to MIC for Escherichia coli MG1655 membrane permeabilized mutant in presence of polymyxinnonapeptide
- Format: functional
result type: Ratio

>  <smiles entry>
NCc1ccc(-c2ccc(N3C[C@H](CO)OC3=O)cc2F)cc1O

>  <operator symbol>
=

>  <readout number>
2.6

$$$$
>  <smiles entry>
NC[C@H]1CN(c2ccc(-c3ccc(F)c(O)c3)c(F)c2)C(=O)O1

>  <operator symbol>
=

>  <readout number>
1

$$$$
>  <smiles entry>
O=C1O[C@@H](CO)CN1c1ccc(-c2cc(O)c(F)cc2F)cc1

>  <operator symbol>
>

>  <readout number>
4

$$$$
>  <smiles entry>
CCOc1cnnn1C[C@H]1CN(c2ccc(-c3ccc(CN)cc3)c(F)c2)C(=O)O1

>  <operator symbol>
>

>  <readout number>
1

$$$$
>  <smiles entry>
N#Cc1cc(O)cc(-c2ccc(N3C[C@H](Cn4nccn4)OC3=O)cc2F)c1

>  <operator symbol>
>

>  <readout number>
4

$$$$
>  <smiles entry>
O=C1O[C@@H](CO)CN1c1ccc(-c2ccc([N+](=O)[O-])c(O)c2)c(F)c1

>  <operator symbol>
=

>  <readout number>
1

$$$$
>  <smiles entry>
CC(=O)NC[C@H]1CN(c2ccc(-c3ccc(F)c(O)c3)c(F)c2)C(=O)O1

>  <operator symbol>
>

>  <readout number>
16

$$$$
>  <smiles entry>
N#Cc1cc(O)cc(-c2ccc(N3C[C@H](Cn4ccnn4)OC3=O)cc2F)c1

>  <operator symbol>
>

>  <readout number>
2

$$$$
>  <smiles entry>
O=C1O[C@@H](CNC(=O)C(F)(F)F)CN1c1ccc(-c2ccc(F)c(O)c2)c(F)c1

>  <operator symbol>
>

>  <readout number>
2

$$$$
>  <smiles entry>
CC(=O)NC[C@H]1CN(c2ccc(-c3ccc(CN)c(O)c3)c(F)c2)C(=O)O1

>  <operator symbol>
=

>  <readout number>
2

$$$$
>  <smiles entry>
NCc1ccc(-c2ccc(N3C[C@H](Cn4cc(CN)nn4)OC3=O)cc2F)cc1

>  <operator symbol>
>

>  <readout number>
2

$$$$
>  <smiles entry>
NCc1cc(F)c(-c2ccc(N3C[C@H](CO)OC3=O)cc2F)cc1O

>  <operator symbol>
=

>  <readout number>
2

$$$$
>  <smiles entry>
N/C(=N\O)c1ccc(-c2ccc(N3C[C@H](CNC(=O)C(F)(F)F)OC3=O)cc2F)cc1

>  <operator symbol>
>

>  <readout number>
16

$$$$
>  <smiles entry>
CC(=O)NC[C@H]1CN(c2ccc(-c3ccc(CN)cc3)c(F)c2)C(=O)O1

>  <operator symbol>
=

>  <readout number>
2

$$$$
>  <smiles entry>
NCc1ncc(-c2ccc(N3C[C@H](CO)OC3=O)cc2F)cc1O

>  <operator symbol>
=

>  <readout number>
1.6

$$$$
>  <smiles entry>
O=C1O[C@@H](CO)CN1c1ccc(-c2cc(O)ccc2F)cc1

>  <operator symbol>
>

>  <readout number>
8

$$$$

---

- System: Escherichia coli
- protocol summary: Efflux index, ratio of MIC for wild type Escherichia coli MG1655 to MIC for Escherichia coli MG1655 expressing AcrAB-TolC efflux pump deletion mutant
- Format: functional

>  <smiles entry>
O=C1O[C@@H](CO)CN1c1ccc(-c2cc(O)c(F)cc2F)cc1

>  <Ratio>
>8

$$$$
>  <smiles entry>
N/C(=N\O)c1ccc(-c2ccc(N3C[C@H](CO)OC3=O)cc2)cc1

>  <Ratio>
>32

$$$$
>  <smiles entry>
N#Cc1cc(O)cc(-c2ccc(N3C[C@H](Cn4ccnn4)OC3=O)cc2F)c1

>  <Ratio>
>4

$$$$
>  <smiles entry>
NCc1ccc(-c2ccc(N3C[C@H](CN4CCOC4=O)OC3=O)cc2F)cc1

>  <Ratio>
>=2

$$$$
>  <smiles entry>
CCOc1cn(C[C@H]2CN(c3ccc(-c4ccc(CN)cc4)c(F)c3)C(=O)O2)nn1

>  <Ratio>
>4

$$$$
>  <smiles entry>
N#Cc1cc(O)cc(-c2ccc(N3C[C@H](Cn4nccn4)OC3=O)cc2F)c1

>  <Ratio>
>4

$$$$
